- Test system: Saccharomyces cerevisiae BY4741 SeMeCo community
- Experiment Summary: z-score of subpopulation abundance vs DMSO median, subpopulation auxotrophic for LUM; higher = larger share of this subpopulation than in DMSO controls
- Conditions: 10 µM; 24 h; SM minimal medium; subpopulation (auxotrophy): LUM
Structures can show the parent of a compound that is named as a salt.
Quantity: z-score of subpopulation abundance
Give bare numbers.

{"Molecule": "COCC(=O)Nc1cc(Sc2ccccc2)ccc1N=C(NC(=O)OC)NC(=O)OC", "Tested Target": "Saccharomyces cerevisiae BY4741 SeMeCo community", "z-score of subpopulation abundance": 0.02}
{"Molecule": "CN(C)CCCN1c2ccccc2Sc2ccc(Cl)cc21 [Chlorpromazine HCl]", "Tested Target": "Saccharomyces cerevisiae BY4741 SeMeCo community", "z-score of subpopulation abundance": 0.52}
{"Molecule": "Nc1ccc2cc3ccc(N)cc3nc2c1 [Proflavine Hemisulfate]", "Tested Target": "Saccharomyces cerevisiae BY4741 SeMeCo community", "z-score of subpopulation abundance": -5.16}
{"Molecule": "c1ccc(C2CN3CCSC3=N2)cc1 (stereo not drawn) [Tetramisole HCl]", "Tested Target": "Saccharomyces cerevisiae BY4741 SeMeCo community", "z-score of subpopulation abundance": 0.46}
{"Molecule": "NC(=O)N1c2ccccc2C=Cc2ccccc21 [Carbamazepine]", "Tested Target": "Saccharomyces cerevisiae BY4741 SeMeCo community", "z-score of subpopulation abundance": 0.24}
{"Molecule": "CO/N=C(\\C(=O)N[C@@H]1C(=O)N2C(C(=O)OCOC(=O)C(C)(C)C)=C(/C=C\\c3scnc3C)CS[C@H]12)c1csc(N)n1", "Tested Target": "Saccharomyces cerevisiae BY4741 SeMeCo community", "z-score of subpopulation abundance": 1.12}
{"Molecule": "Nc1nc2[nH]cc(CCc3ccc(C(=O)N[C@@H](CCC(=O)O)C(=O)O)cc3)c2c(=O)[nH]1 [Pemetrexed Disodium Hydrate]", "Tested Target": "Saccharomyces cerevisiae BY4741 SeMeCo community", "z-score of subpopulation abundance": -3.47}
{"Molecule": "CNCC[C@H](Oc1cccc2ccccc12)c1cccs1", "Tested Target": "Saccharomyces cerevisiae BY4741 SeMeCo community", "z-score of subpopulation abundance": -0.47}
{"Molecule": "CO/N=C(\\C(=O)N[C@@H]1C(=O)N2C(C(=O)[O-])=C(C[N+]3(C)CCCC3)CS[C@H]12)c1csc(N)n1 [Cefepime Dihydrochloride Monohydrate]", "Tested Target": "Saccharomyces cerevisiae BY4741 SeMeCo community", "z-score of subpopulation abundance": 1.06}
{"Molecule": "O=C(O[C@H]1CN2CCC1CC2)N1CCc2ccccc2[C@@H]1c1ccccc1 [Solifenacin succinate]", "Tested Target": "Saccharomyces cerevisiae BY4741 SeMeCo community", "z-score of subpopulation abundance": 0.68}

State recorded z-score of subpopulation abundance for all listed molecules.
1. CCCc1nc(C)c2c(=O)nc(-c3cc(S(=O)(=O)N4CCN(CC)CC4)ccc3OCC)[nH]n12 [Vardenafil HCl Trihydrate]
2. C=C[C@H]1CN2CC[C@H]1C[C@@H]2[C@@H](O)c1ccnc2ccc(OC)cc12 [Quinidine sulfate]
3. NC(=O)Cc1cccc(C(=O)c2ccccc2)c1N
4. O=C(c1ccccc1)c1ccc2n1CCC2C(=O)O (stereo not drawn) [Ketorolac]
5. Cc1ncc([N+](=O)[O-])n1CCO
6. CS(=O)(=O)Nc1ccc([N+](=O)[O-])cc1Oc1ccccc1 [Nimesulide]
7. OCCN(CCO)c1nc(N2CCCCC2)c2nc(N(CCO)CCO)nc(N3CCCCC3)c2n1

## Result
1: -0.24; 2: 1.53; 3: 0.29; 4: -0.52; 5: -0.37; 6: 0.62; 7: -4.38
